molecular target: Calcium and integrin-binding protein 1 (Homo sapiens) (UniProt Q99828); assay: Primary qHTS for Identification of Calcium Integrin Binding Protein 1 (CIB1) Competitor (AID 1508620); conditions: CIB1-GST / FITC-alphaIIb peptide fluorescence polarization; series mostly up to 57.7 µM;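 note: GST tagged CIB1 binding a fluorescein labelled alphaIIb integrin peptide tracer; top concentration of the series differs between compounds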
Sequence (Q99828 whole entry, looked up): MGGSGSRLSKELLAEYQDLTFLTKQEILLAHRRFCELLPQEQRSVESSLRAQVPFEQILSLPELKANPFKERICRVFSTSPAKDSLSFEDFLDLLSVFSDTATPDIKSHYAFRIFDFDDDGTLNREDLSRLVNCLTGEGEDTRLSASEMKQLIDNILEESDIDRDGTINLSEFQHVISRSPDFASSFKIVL
Inconclusive results are not listed. Active and inactive are the calls of the source. Calls come from the whole dose curve; as a rule, active = well fitted inhibition curve with a large enough effect; inconclusive = small, poorly fitted or top-dose-only effect; inactive = flat fitted curve, though single readings scatter.
ASSAY_ENDPOINT: outcome

O=C1C=CC[C@@H]2[C@H]3CCCN4CCC[C@@H](CN12)[C@@H]34 :: inactive
c1cc2c(cc1[C@H]1OC[C@H]3[C@H]1CO[C@H]3c1ccc3c(c1)OCO3)OCO2 :: inactive
N=c1c2c(-c3ccccc3)c(-c3ccccc3)n(Cc3ccccc3)c2ncn1C1CCC(O)CC1 (stereo not given) :: inactive
CC(C)NCC(O)c1ccc([N+](=O)[O-])cc1 (stereo not given) :: inactive
CN[C@@H]1Cc2cccc3[nH]c(=O)n(c23)C1 :: inactive
CC[N+]1(CCOC(=O)C(O)(c2ccccc2)c2ccccc2)CCCCC1 :: inactive

Problem: Specify reported outcome for the compound shown: C=C[C@@H]1CN2CCC1C[C@H]2[C@H](O)c1ccnc2ccccc12 (stereo not given in full)
Solution: inactive

Problem: // fetch outcome given entry C1=C2CCCN[C@H]2[C@@H]2C[C@H]1[C@@H]1CCCCN1C2
Solution: inactive

Problem: Could you please provide reported outcome for C[C@@H]1[C@H](O)[C@@H](C)C=CC=CCCC=CC=CC=CC=C[C@H](O[C@H]2O[C@@H](C)[C@H](O)[C@@H](N)[C@@H]2O)CC2O[C@](O)(C[C@@H](O)[C@H](O)CC[C@@H](O)C[C@@H](O)C[C@@H](O)CC(=O)O[C@H]1C)C[C@H](O)[C@H]2C(=O)O ? Thanks!
Solution: inactive

Problem: Give recorded outcome. c1ccc2c(CN3CCNCC3)cccc2c1
Solution: inactive

Problem: Please give the documented outcome of CC(=O)N(C)c1cccc(-c2ccnc3c(C(=O)c4cccs4)cnn23)c1
Solution: inactive

Problem: // Input: CCN1C[C@]2(OC(=O)c3ccccc3NC(C)=O)CC[C@H](OC)[C@@]34[C@H]5CC6[C@@H](OC)C[C@](O)(C(C[C@@H]23)[C@@H]14)[C@@]5(O)[C@@H]6OC . Output its outcome only.
Solution: inactive

Problem: Input CN(C)NC(=O)CCC(=O)O , output reported outcome.
Solution: inactive

Problem: Fill in outcome for record CCNC(=O)C[C@@H]1N=C(c2ccc(Cl)cc2)c2cc(OC)ccc2-n2c(C)nnc21
Solution: inactive

Problem: Note outcome for the compound shown: O=S(=O)(O)C(F)(F)C(F)(F)C(F)(F)C(F)(F)F
Solution: inactive

Problem: Report measured outcome; entry is O=C(O)COc1ccccc1
Solution: inactive

Problem: Give the value of outcome reported for the following: CCO/N=C(\CC)C1=C(O)CC(c2c(C)cc(C)cc2C)CC1=O (stereo not given)
Solution: inactive

Problem: Give recorded outcome. COC[C@H]1OC(=O)c2coc3c2[C@@]1(C)C1=C(C3=O)[C@@H]2CC[C@H](O)[C@@]2(C)C[C@@H]1OC(C)=O
Solution: inactive

Problem: Dear colleague, please send me the reported outcome for CCOCCOC(C)=O when you can.
Solution: inactive

Problem: Tell me its outcome given Cc1cc(O)ccc1Cl as the entry.
Solution: inactive

Problem: Give a short answer stating reported outcome for CO[C@H]1CCC(O[C@H]2C[C@H]([C@]3(C)CC[C@]4(C[C@H](O)[C@@H](C)[C@@H]([C@@H](C)C=C(C)C(=O)[C@H](C)C[C@H](C)C(=O)O)O4)O3)O[C@]3(O[C@@H]([C@H]4O[C@@](O)(CO)[C@H](C)C[C@H]4C)C[C@H]3C)[C@H]2C)O[C@H]1C (stereo not given in full) .
Solution: inactive

Problem: Complete the entry with outcome for O=C(O)COc1nc(Cl)c(Cl)cc1Cl
Solution: inactive

Problem: Please supply the value of reported outcome for the item COc1ccc(C(=O)c2c(C)n(CCN3CCOCC3)c3cc(I)ccc23)cc1
Solution: inactive
